cell viability: recorded values
- System: NOMO-1
- protocol: cell viability (% survival relative to DMSO control, bortezomib = 0%); higher = less cytotoxic
- assay conditions: 1000 nM; 72 h
endpoint name: cell viability (%)

{"columns": ["compound", "measurement target", "endpoint name", "numeric value"],
 "data": [
  ["O=C(O)CC[C@H](NC(=O)c1ccc([N+](=O)[O-])cc1)C(=O)O [(S)-2-(4-Nitrobenzamido)pentanedioic acid]", "NOMO-1", "cell viability", 105],
  ["Oc1cc(Cl)ccc1Oc1ccc(Cl)cc1Cl", "NOMO-1", "cell viability", 104],
  ["C=CCc1ccc2c(c1O)C(=O)c1ccccc1C2=O", "NOMO-1", "cell viability", 105]
]}

---

- Test system: THP-1
- protocol: cell viability (% survival relative to DMSO control, bortezomib = 0%); higher = less cytotoxic
- assay conditions: 10000 nM; 72 h
cell viability: recorded values
endpoint name: cell viability (%)

{"columns": ["compound", "display unit", "numeric value"],
 "data": [
  ["Cc1c(-c2ccccc2)oc2c(C(=O)OCCN3CCCCC3)cccc2c1=O.Cl [Flavoxate]", "%", 109],
  ["C[C@H]1O[C@@H](O[C@H]2[C@@H](O)C[C@H](O[C@H]3[C@@H](O)C[C@H](O[C@H]4CC[C@@]5(C)[C@H](CC[C@@H]6[C@@H]5C[C@@H](O)[C@]5(C)[C@@H](C7=CC(=O)OC7)CC[C@]65O)C4)O[C@@H]3C)O[C@@H]2C)C[C@H](O)[C@@H]1O [Digoxin]", "%", -0.172],
  ["Cc1ccc(S(=O)(=O)NC2c3ccccc3Oc3ccccc32)cc1 [AH-7614]", "%", 100],
  ["O=c1c2ccccc2[se]n1-c1ccccc1 [Ebselen]", "%", 81.8],
  ["Sc1ncnc2nc[nH]c12 [6-mercaptopurine]", "%", 85.2],
  ["O=C(O)CC[C@H](NC(=O)c1ccc([N+](=O)[O-])cc1)C(=O)O [(S)-2-(4-Nitrobenzamido)pentanedioic acid]", "%", 95.5],
  ["CC(C(=O)O)C(=O)O [Methylmalonate]", "%", 87.6],
  ["Oc1cc(Cl)ccc1Oc1ccc(Cl)cc1Cl [Triclosan]", "%", 92],
  ["CC(Cc1ccc(O)c(O)c1)C(C)Cc1ccc(O)c(O)c1 (configuration not stated) [Masoprocol]", "%", 85.9],
  ["O=P(O)(O)C(O)(Cn1ccnc1)P(=O)(O)O [Zoledronic acid]", "%", 99.5],
  ["Cl.OC[C@H]1NC[C@@H](O)[C@@H](O)[C@@H]1O [1-Deoxymannojirimycin hydrochloride]", "%", 91.9],
  ["O=C(O)c1cc2sccc2[nH]1 [4H-thieno[3,2-b]pyrrole-5-carboxylic acid]", "%", 105]
]}

---

- Test system: HL-60
- protocol: cell viability (% survival relative to DMSO control, bortezomib = 0%); higher = less cytotoxic
- assay conditions: 10000 nM; 72 h
cell viability: recorded values
endpoint name: cell viability (%)

{"columns": ["compound", "endpoint name", "display unit", "numeric value"],
 "data": [
  ["CCCc1nn(C)c2c(O)nc(-c3cc(S(=O)(=O)N4CCN(C)CC4)ccc3OCC)nc12", "cell viability", "%", 111],
  ["CC(C(=O)O)C(=O)O [Methylmalonate]", "cell viability", "%", 90.1],
  ["O=C(O)c1nn(Cc2ccc(Cl)cc2Cl)c2ccccc12", "cell viability", "%", 105],
  ["C[C@]12CC[C@H](O)CC1=CC[C@@H]1[C@@H]2CC[C@]2(C)C(c3cccnc3)=CC[C@@H]12", "cell viability", "%", 124],
  ["CC12CCC(O)CC1CCC1C2CCC2(C)C(C3=CC(=O)OC3)CCC12O (stereo not given)", "cell viability", "%", -1.85],
  ["O=C1Oc2ccccc2C(=O)C1CC1C(=O)Oc2ccccc2C1=O (stereo not given)", "cell viability", "%", 112],
  ["Clc1ccc(COC(Cn2ccnc2)c2ccc(Cl)cc2Cl)cc1 (stereo not given)", "cell viability", "%", 41.5],
  ["CN(C/C=C/C#CC(C)(C)C)Cc1cccc2ccccc12", "cell viability", "%", 93.8],
  ["C[C@H]1O[C@@H](O[C@H]2[C@@H](O)C[C@H](O[C@H]3[C@@H](O)C[C@H](O[C@H]4CC[C@@]5(C)[C@H](CC[C@@H]6[C@@H]5C[C@@H](O)[C@]5(C)[C@@H](C7=CC(=O)OC7)CC[C@]65O)C4)O[C@@H]3C)O[C@@H]2C)C[C@H](O)[C@@H]1O", "cell viability", "%", -0.00704],
  ["O=C(O)C(Cl)Cl [Dichloroacetate]", "cell viability", "%", 120],
  ["O=C(O)C(S)=Cc1c[nH]c2ccc(F)cc12", "cell viability", "%", 90.7],
  ["NC(=O)c1ncn([C@@H]2O[C@H](CO)[C@@H](O)[C@H]2O)n1", "cell viability", "%", 149],
  ["Cc1noc2c1-c1ccccc1C(c1ccc(Cl)cc1)=N[C@H]2CC(N)=O", "cell viability", "%", 16.1],
  ["CCN(CC)CCN(Cc1ccc(-c2ccc(C(F)(F)F)cc2)cc1)C(=O)Cn1c(SCc2ccc(F)cc2)nc(=O)c2c1CCC2", "cell viability", "%", -0.402],
  ["O=C(O)c1cc2sccc2[nH]1 [4H-thieno[3,2-b]pyrrole-5-carboxylic acid]", "cell viability", "%", 95.3],
  ["Sc1ncnc2nc[nH]c12", "cell viability", "%", 15.2],
  ["CC(/C=C1\\SC(=S)N(CC(=O)O)C1=O)=C\\c1ccccc1", "cell viability", "%", 115],
  ["O=P(O)(O)C(O)(Cn1ccnc1)P(=O)(O)O", "cell viability", "%", 111],
  ["CC(C)Cc1sc(N)nc1-c1ccc(P(=O)(O)O)o1", "cell viability", "%", 67],
  ["O=c1c2ccccc2[se]n1-c1ccccc1", "cell viability", "%", 77.6]
]}

---

- Test system: KCL-22
- protocol: cell viability (% survival relative to DMSO control, bortezomib = 0%); higher = less cytotoxic
- assay conditions: 10 nM; 72 h
cell viability: recorded values

{"columns": ["molecule", "measurement target", "display unit", "cell viability"],
 "data": [
  ["O=C1Oc2ccccc2C(=O)C1CC1C(=O)Oc2ccccc2C1=O (centres undefined) [Dicumarol]", "KCL-22", "%", 97.3],
  ["C1CCC(C(CC2CCCCN2)C2CCCCC2)CC1.O=C(O)/C=C\\C(=O)O (centres undefined) [Perhexiline]", "KCL-22", "%", 79.3],
  ["CCOc1ccc(Cc2cc([C@@H]3O[C@H](CO)[C@@H](O)[C@H](O)[C@H]3O)ccc2Cl)cc1 [Dapagliflozin]", "KCL-22", "%", 109],
  ["C=CCc1ccc2c(c1O)C(=O)c1ccccc1C2=O [R162]", "KCL-22", "%", 98.3]
]}

---

cell viability: recorded values
- System: KU-812
- protocol: cell viability (% survival relative to DMSO control, bortezomib = 0%); higher = less cytotoxic
- assay conditions: 10 nM; 72 h

{"columns": ["compound", "cell viability"],
 "data": [
  ["C[C@H]1O[C@@H](O[C@H]2[C@@H](O)C[C@H](O[C@H]3[C@@H](O)C[C@H](O[C@H]4CC[C@@]5(C)[C@H](CC[C@@H]6[C@@H]5C[C@@H](O)[C@]5(C)[C@@H](C7=CC(=O)OC7)CC[C@]65O)C4)O[C@@H]3C)O[C@@H]2C)C[C@H](O)[C@@H]1O [Digoxin]", "113%"],
  ["Nc1ccn([C@@H]2O[C@H](CO)[C@@H](O)[C@@H]2O)c(=O)n1 [Cytarabine]", "81.8%"],
  ["COc1c(C)c2c(c(O)c1C/C=C(\\C)CCC(=O)O)C(=O)OC2 [Mycophenolic acid]", "94.5%"]
]}

---

- Test system: KG-1
- protocol: cell viability (% survival relative to DMSO control, bortezomib = 0%); higher = less cytotoxic
- assay conditions: 10000 nM; 72 h
cell viability: recorded values
endpoint name: cell viability (%)

{"columns": ["molecule", "endpoint name", "numeric value"],
 "data": [
  ["[N-]=[N+]=CC(=O)CC[C@H](N)C(=O)O [6-Diazo-5-oxo-L-norleucine]", "cell viability", 98.9],
  ["O=C1Oc2ccccc2C(=O)C1CC1C(=O)Oc2ccccc2C1=O (stereo unspecified) [Dicumarol]", "cell viability", 95.9],
  ["CC(C(=O)O)C(=O)O [Methylmalonate]", "cell viability", 88.4],
  ["O=C(O)C(Cl)Cl [Dichloroacetate]", "cell viability", 103],
  ["CN(C/C=C/C#CC(C)(C)C)Cc1cccc2ccccc12 [Terbinafine]", "cell viability", 92.6],
  ["CCOC(=O)N1c2ccc(C(F)(F)F)cc2[C@@H](N(Cc2cc(C(F)(F)F)cc(C(F)(F)F)c2)C(=O)OC)C[C@H]1CC [Torcetrapib]", "cell viability", 45.1],
  ["NC(=O)c1ncn([C@@H]2O[C@H](CO)[C@@H](O)[C@H]2O)n1 [Ribavirin]", "cell viability", 98.1],
  ["Oc1cc(Cl)ccc1Oc1ccc(Cl)cc1Cl [Triclosan]", "cell viability", 143],
  ["O=C(O)c1nn(Cc2ccc(Cl)cc2Cl)c2ccccc12 [Lonidamine]", "cell viability", 71.9],
  ["CCOC(=O)[C@H]1O[C@@H]1C(=O)N[C@@H](CC(C)C)C(=O)NCCC(C)C [Aloxistatin]", "cell viability", 86.5],
  ["Cc1ccc(S(=O)(=O)NC2c3ccccc3Oc3ccccc32)cc1 [AH-7614]", "cell viability", 104]
]}
